test.target: fusion protein PRC
Sequence (chain, as listed by the source): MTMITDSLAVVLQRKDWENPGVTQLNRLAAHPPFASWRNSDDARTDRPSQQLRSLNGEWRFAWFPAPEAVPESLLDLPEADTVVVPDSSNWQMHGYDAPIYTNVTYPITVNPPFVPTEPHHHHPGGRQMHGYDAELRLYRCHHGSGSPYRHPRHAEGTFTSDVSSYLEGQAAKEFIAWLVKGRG
For each of the proteins below, state its relative cleavage efficiency.
Answers are plain numbers, in %.

The following proteins have reported results that may help.
protein | data.value
OmpT protease variant OmpT D97C (protein) STETLSFTPDNINADISLGTLSGKTKERVYLAEEGGRKVSQLDWKFNNAAIIKGAINWDLMPQISIGAAGWTTLGSRGGNMVDQDWMDSSNPGTWTCESRHPDTQLNYANEFDLNIKGWLLNEPNYRLGLMAGYQESRYSFTARGGSYIYSSEEGFRDDIGSFPNGERAIGYKQRFKMPYIGLTGSYRYEDFELGGTFKYSGWVESSDNDEHYDPGKRITYRSKVKDQNYYSVAVNAGYYVTPNAKVYVEGAWNRVTNKKGNTSLYDHNNNTSDYSKNGAGIENYNFITTAGLKYTF | 4.8
OmpT protease variant OmpT D97M (protein) STETLSFTPDNINADISLGTLSGKTKERVYLAEEGGRKVSQLDWKFNNAAIIKGAINWDLMPQISIGAAGWTTLGSRGGNMVDQDWMDSSNPGTWTMESRHPDTQLNYANEFDLNIKGWLLNEPNYRLGLMAGYQESRYSFTARGGSYIYSSEEGFRDDIGSFPNGERAIGYKQRFKMPYIGLTGSYRYEDFELGGTFKYSGWVESSDNDEHYDPGKRITYRSKVKDQNYYSVAVNAGYYVTPNAKVYVEGAWNRVTNKKGNTSLYDHNNNTSDYSKNGAGIENYNFITTAGLKYTF | 6.5
OmpT protease (wild-type, E. coli mature OmpT protease) (protein) STETLSFTPDNINADISLGTLSGKTKERVYLAEEGGRKVSQLDWKFNNAAIIKGAINWDLMPQISIGAAGWTTLGSRGGNMVDQDWMDSSNPGTWTDESRHPDTQLNYANEFDLNIKGWLLNEPNYRLGLMAGYQESRYSFTARGGSYIYSSEEGFRDDIGSFPNGERAIGYKQRFKMPYIGLTGSYRYEDFELGGTFKYSGWVESSDNDEHYDPGKRITYRSKVKDQNYYSVAVNAGYYVTPNAKVYVEGAWNRVTNKKGNTSLYDHNNNTSDYSKNGAGIENYNFITTAGLKYTF | 3.1
OmpT protease variant OmpT D97S (protein) STETLSFTPDNINADISLGTLSGKTKERVYLAEEGGRKVSQLDWKFNNAAIIKGAINWDLMPQISIGAAGWTTLGSRGGNMVDQDWMDSSNPGTWTSESRHPDTQLNYANEFDLNIKGWLLNEPNYRLGLMAGYQESRYSFTARGGSYIYSSEEGFRDDIGSFPNGERAIGYKQRFKMPYIGLTGSYRYEDFELGGTFKYSGWVESSDNDEHYDPGKRITYRSKVKDQNYYSVAVNAGYYVTPNAKVYVEGAWNRVTNKKGNTSLYDHNNNTSDYSKNGAGIENYNFITTAGLKYTF | 3.1

Respond only with relative cleavage efficiency recorded for OmpT protease variant OmpT D97L (protein) STETLSFTPDNINADISLGTLSGKTKERVYLAEEGGRKVSQLDWKFNNAAIIKGAINWDLMPQISIGAAGWTTLGSRGGNMVDQDWMDSSNPGTWTLESRHPDTQLNYANEFDLNIKGWLLNEPNYRLGLMAGYQESRYSFTARGGSYIYSSEEGFRDDIGSFPNGERAIGYKQRFKMPYIGLTGSYRYEDFELGGTFKYSGWVESSDNDEHYDPGKRITYRSKVKDQNYYSVAVNAGYYVTPNAKVYVEGAWNRVTNKKGNTSLYDHNNNTSDYSKNGAGIENYNFITTAGLKYTF
3.9

Numbers sourced from patent US20070077617.
